Values compiled from paper PMC9143821.

Please provide measured bioavailability for the entries that follow.
Assay: Pharmacokinetics in SD rats
Format: in vivo
Settings: male, Sprague-Dawley, rat, plasma; species and route not stated in b12 (7c value equals SD rats PO of Table 3); read-out: bioavailability (F)

>>> resultvalue("COc1cc(C)cc(N2CCN(C(=O)Nc3nc4sccc4nc3OC)CC2)c1")
"21.8%"

From here, focus on the item given below.
Ask: Please give measured bioavailability of the following entry: COc1cc(OC)cc(N2CCN(C(=O)Nc3nc4sccc4nc3OC)CC2)c1
Reply: 20.1%

* * *

Test: Pharmacokinetics in SD rats
Format: in vivo
Conditions: male, Sprague-Dawley, rat, plasma; SD rats, PO, 5 mg/kg
Method: Sprague–Dawley rats (adult males, 250–300 g) were fasted overnight, and the femoral vein (for iv administration of the compound) and jugular vein (for blood sampling) of each rat were cannulated with polyethylene tubing. […] Compound concentrations in plasma were determined by LC/MS/MS analysis (API4000 mass spectrometer, Applied Biosystem, Waltham, MA, USA). Pharmacokinetic parameters were analyzed using the WinNonlin software program. […]
quantityKind: Cmax (ng/mL)
Numbers only, in ng/mL.

Ask: Please give measured Cmax of the following entry: COc1cc(OC)cc(N2CCN(C(=O)Nc3nc4sccc4nc3OC)CC2)c1
Reply: 76

* * *

Assay: Solubility (logS)
Format: physicochemical
Conditions: pH 2, aqueous buffer, thermodynamic from solid; pH2.0; read-out: Solubility (logS) Equilibrium (converted)
quantityKind: solubility (µM)
One number for each entry, in µM.

Ask: Please give measured solubility of the following entry: COc1cc(OC)cc(N2CCN(C(=O)Nc3nc4sccc4nc3OC)CC2)c1 [Compound 7c]
Reply: 2090

* * *

Assay: Pharmacokinetics in ICR mice
Format: in vivo
Settings: mouse, plasma, IV, 5 mg/kg
quantityKind: clearance (mL/min/kg)
Give bare numbers, in mL/min/kg.

Ask: Please give measured clearance of the following entry: COc1cc(OC)cc(N2CCN(C(=O)Nc3nc4sccc4nc3OC)CC2)c1
Reply: 5.08

* * *

Assay: Pharmacokinetics in SD rats
Format: in vivo
Conditions: male, Sprague-Dawley, rat, plasma; SD rats, IV, 1 mg/kg
quantityKind: Tmax (min)
Give bare numbers, in min.

Ask: Please give measured Tmax of the following entry: COc1cc(OC)cc(N2CCN(C(=O)Nc3nc4sccc4nc3OC)CC2)c1 [Compound 7c]
Reply: 4.98

* * *

Experiment: Pharmacokinetics in ICR mice
Assay type: in vivo
Conditions: mouse, plasma, PO, 5 mg/kg
quantityKind: bioavailability (%)
Give bare numbers, in %.

Ask: Please give measured bioavailability of the following entry: COc1cc(OC)cc(N2CCN(C(=O)Nc3nc4sccc4nc3OC)CC2)c1
Reply: 13.8

* * *

Assay: logP determination
Type: physicochemical
quantityKind: logP
Give bare numbers.

Ask: Please give measured logP of the following entry: COc1cc(OC)cc(N2CCN(C(=O)Nc3nc4sccc4nc3OC)CC2)c1
Reply: 2.63

* * *

Test: Pharmacokinetics in SD rats
Format: in vivo
Details: male, Sprague-Dawley, rat, plasma; SD rats, IV, 1 mg/kg; read-out: Vss
quantityKind: Vd
Please answer using the number first and the unit second.

Ask: Please give measured Vd of the following entry: COc1cc(OC)cc(N2CCN(C(=O)Nc3nc4sccc4nc3OC)CC2)c1
Reply: 2.31 L/kg

* * *

Experiment: Pharmacokinetics in SD rats
Type: in vivo
Conditions: male, Sprague-Dawley, rat, plasma; SD rats, PO, 5 mg/kg; read-out: F
quantityKind: bioavailability
Please answer using the number first and the unit second.

Ask: Please give measured bioavailability of the following entry: COc1cc(OC)cc(N2CCN(C(=O)Nc3nc4sccc4nc3OC)CC2)c1 [Compound 7c]
Reply: 20.1%

* * *

Assay: Pharmacokinetics in SD rats
Format: in vivo
Conditions: male, Sprague-Dawley, rat, plasma; SD rats, IV, 1 mg/kg
quantityKind: clearance
Please answer using the number first and the unit second.

Ask: Please give measured clearance of the following entry: COc1cc(OC)cc(N2CCN(C(=O)Nc3nc4sccc4nc3OC)CC2)c1 [Compound 7c]
Reply: 25.2 mL/min/kg

* * *

Please provide measured GI50 for the entries that follow.
Test system: HCT116
Experiment: SRB assay, colon cancer cell growth inhibition
Format: cell-based
Conditions: Homo sapiens, HCT-116; HCT116, SRB, 48 h
Give bare numbers, in nM.

Below are worked cases with known answers.
>>> resultvalue("COc1nc2ccsc2nc1NC(=O)N1CCN(c2cc(C)cc(C)c2)CC1")
33
>>> resultvalue("COc1nc2ccsc2nc1NC(=O)N1CCN(c2cc(C)cc(F)c2)CC1")
32
>>> resultvalue("COc1cc(OC)cc(N2CCN(C(=O)Nc3nc4sccc4nc3OC)CC2)c1")
12
>>> resultvalue("COc1cc(F)cc(N2CCN(C(=O)Nc3nc4sccc4nc3OC)CC2)c1")
45

Ask: Please give measured GI50 of the following entry: COc1nc2cc(Cl)sc2nc1NC(=O)N1CCN(c2cc(C)cc(C)c2)CC1
Reply: 244

* * *

Test: Pharmacokinetics in ICR mice
Assay type: in vivo
Details: mouse, plasma, IV, 5 mg/kg
quantityKind: half-life (h)
One number for each entry, in h.

Ask: Please give measured half-life of the following entry: COc1cc(OC)cc(N2CCN(C(=O)Nc3nc4sccc4nc3OC)CC2)c1
Reply: 2.98

* * *

Assay: Pharmacokinetics in SD rats
Assay type: in vivo
Details: male, Sprague-Dawley, rat, plasma; SD rats, IV, 1 mg/kg
quantityKind: AUC(0-inf) (ng·h/mL)
One number for each entry, in ng·h/mL.

Ask: Please give measured AUC(0-inf) of the following entry: COc1cc(OC)cc(N2CCN(C(=O)Nc3nc4sccc4nc3OC)CC2)c1 [Compound 7c]
Reply: 708

* * *

Assay: Solubility (logS)
Format: physicochemical
Settings: pH 7.4, aqueous buffer, thermodynamic from solid; pH7.4; read-out: Solubility (logS) Equilibrium (converted)
quantityKind: solubility (µM)
Answers are plain numbers, in µM.

Ask: Please give measured solubility of the following entry: COc1cc(OC)cc(N2CCN(C(=O)Nc3nc4sccc4nc3OC)CC2)c1
Reply: 603

* * *

Assay: Pharmacokinetics in SD rats
Format: in vivo
Conditions: male, Sprague-Dawley, rat, plasma; SD rats, IV, 1 mg/kg
quantityKind: AUC(0-t)

Ask: Please give measured AUC(0-t) of the following entry: COc1cc(OC)cc(N2CCN(C(=O)Nc3nc4sccc4nc3OC)CC2)c1 [Compound 7c]
Reply: 703 ng·h/mL

* * *

Assay: Pharmacokinetics in ICR mice
Assay type: in vivo
Conditions: mouse, plasma, PO, 5 mg/kg
quantityKind: half-life (min)
Answers are plain numbers, in min.

Ask: Please give measured half-life of the following entry: COc1cc(OC)cc(N2CCN(C(=O)Nc3nc4sccc4nc3OC)CC2)c1 [Compound 7c]
Reply: 312

* * *

Experiment: Pharmacokinetics in ICR mice
Type: in vivo
Conditions: mouse, plasma, PO, 5 mg/kg
quantityKind: AUC(0-t) (µg·h/mL)
Numbers only, in µg·h/mL.

Ask: Please give measured AUC(0-t) of the following entry: COc1cc(OC)cc(N2CCN(C(=O)Nc3nc4sccc4nc3OC)CC2)c1
Reply: 2.26

* * *

Assay: pKa determination
Format: physicochemical
Conditions: first of two values
quantityKind: pKa
Give bare numbers.

Ask: Please give measured pKa of the following entry: COc1cc(OC)cc(N2CCN(C(=O)Nc3nc4sccc4nc3OC)CC2)c1 [Compound 7c]
Reply: 2.39

* * *

Assay: Pharmacokinetics in SD rats
Type: in vivo
Details: male, Sprague-Dawley, rat, plasma; SD rats, PO, 5 mg/kg
quantityKind: AUC(0-t)
Please answer using the number first and the unit second.

Ask: Please give measured AUC(0-t) of the following entry: COc1cc(OC)cc(N2CCN(C(=O)Nc3nc4sccc4nc3OC)CC2)c1
Reply: 707 ng·h/mL

* * *

Tested on: HCT116
Experiment: SRB assay, colon cancer cell growth inhibition
Assay type: cell-based
Details: Homo sapiens, HCT-116; HCT116, SRB, 48 h
Please provide measured GI50 for the entries that follow.
One number for each entry, in nM.

Below are worked cases with known answers.
>>> resultvalue("CCOc1nc2ccsc2nc1NC(=O)N1CCN(c2cc(OC)cc(OC)c2)CC1")
71
>>> resultvalue("COc1cc(OC)cc(N2CCN(C(=O)Nc3nc4sc(Cl)cc4nc3OC)CC2)c1")
344
>>> resultvalue("COc1nc2ccsc2nc1NC(=O)N1CCN(c2cc(F)cc(F)c2)CC1")
307

From here, focus on the item given below.
Ask: Enter recorded GI50 with HCT116 for COc1cc(C)cc(N2CCN(C(=O)Nc3nc4sccc4nc3OC)CC2)c1 here.
Reply: 1.9

* * *

System: HCT15
GI50 class ranges: low group: < 40 nM; middle group: ≥ 40 nM and < 400 nM; high group: ≥ 400 nM

Past entries and their recorded results:
>>> label("COc1nc2ccsc2nc1NC(=O)N1CCN(c2cc(C)cc(F)c2)CC1")
"middle group"
>>> label("COc1cc(OC)cc(N2CCN(C(=O)Nc3nc4sccc4nc3OC)CC2)c1")
"low group"
>>> label("COc1cc(C)cc(N2CCN(C(=O)Nc3nc4sccc4nc3OC)CC2)c1")
"low group"
>>> label("CCOc1nc2ccsc2nc1NC(=O)N1CCN(c2cc(OC)cc(OC)c2)CC1")
"middle group"
>>> label("COc1nc2cc(Cl)sc2nc1NC(=O)N1CCN(c2cc(C)cc(C)c2)CC1")
"high group"

Ask: Category of COc1cc(OC)cc(N2CCN(C(=O)Nc3nc4sc(Cl)cc4nc3OC)CC2)c1 :
Reply: high group

Ask: Category of COc1nc2ccsc2nc1NC(=O)N1CCN(c2cc(C)cc(C)c2)CC1 :
Reply: low group

Ask: Category of COc1cc(F)cc(N2CCN(C(=O)Nc3nc4sccc4nc3OC)CC2)c1 :
Reply: low group

Ask: Category of COc1nc2ccsc2nc1NC(=O)N1CCN(c2cc(F)cc(F)c2)CC1 :
Reply: high group
